- tested-system: CDK6/Cyclin D1 (Homo sapiens, UniProt Q00534)
- Sequence (Q00534 whole entry): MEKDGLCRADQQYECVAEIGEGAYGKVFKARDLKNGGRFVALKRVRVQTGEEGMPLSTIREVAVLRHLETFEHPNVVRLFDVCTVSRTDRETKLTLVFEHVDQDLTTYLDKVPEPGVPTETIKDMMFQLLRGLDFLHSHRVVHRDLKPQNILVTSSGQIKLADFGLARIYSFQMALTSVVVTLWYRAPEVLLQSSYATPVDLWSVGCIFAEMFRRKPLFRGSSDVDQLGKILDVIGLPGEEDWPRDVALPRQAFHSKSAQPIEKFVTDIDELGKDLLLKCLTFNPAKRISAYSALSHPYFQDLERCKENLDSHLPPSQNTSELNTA
- Sequence (P24385 whole entry partner): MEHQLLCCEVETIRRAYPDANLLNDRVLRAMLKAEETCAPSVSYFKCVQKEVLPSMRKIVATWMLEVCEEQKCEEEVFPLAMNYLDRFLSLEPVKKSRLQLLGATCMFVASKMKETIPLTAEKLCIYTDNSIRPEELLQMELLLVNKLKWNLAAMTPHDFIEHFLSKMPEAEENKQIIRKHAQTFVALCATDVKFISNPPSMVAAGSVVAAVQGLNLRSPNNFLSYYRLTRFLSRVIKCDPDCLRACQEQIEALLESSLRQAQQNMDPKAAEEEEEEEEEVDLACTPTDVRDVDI
- assay-procedure: NanoBRET live-cell target engagement, NanoLuc-CDK6/Cyclin D1 in HEK-293
- Format: binding
- setup-conditions: CDK6/D1; read-out: IC50 (nM) Replicate 1
Listed below: IC50 values for each entry.
Give just the number in nM; leave the unit off.

Some solved cases for reference:
>>> reported("CCCCOc1c(C(=O)c2c(F)cc(C)cc2F)c[nH]c2nncc1-2 [BMS-265246]")
63
>>> reported("CNC1CCN(C(=O)c2ccc(Nc3ncc(F)c(-c4cnc(C)n4C(C)C)n3)cc2)C1 (stereo not shown) [AZD5597]")
10
>>> reported("CC(C)c1cnn2c(NCc3ccccc3)cc(N[C@@H](CO)[C@H](O)CO)nc12 [BS-194]")
270

[ask] Identify measured IC50 associated with C[C@H]1CC[C@H](n2c3cnccc3c3cnc(Nc4ccc5c(n4)CCN(C(=O)CO)C5)nc32)CC1 [AMG 925]
[reply] 2.5

----------
Some compounds, each annotated with its measured inhibition at 10 µM.
- tested-system: CDK16/Cyclin Y (Homo sapiens, UniProt Q00536)
- Sequence (Q00536 whole entry, one chain of several): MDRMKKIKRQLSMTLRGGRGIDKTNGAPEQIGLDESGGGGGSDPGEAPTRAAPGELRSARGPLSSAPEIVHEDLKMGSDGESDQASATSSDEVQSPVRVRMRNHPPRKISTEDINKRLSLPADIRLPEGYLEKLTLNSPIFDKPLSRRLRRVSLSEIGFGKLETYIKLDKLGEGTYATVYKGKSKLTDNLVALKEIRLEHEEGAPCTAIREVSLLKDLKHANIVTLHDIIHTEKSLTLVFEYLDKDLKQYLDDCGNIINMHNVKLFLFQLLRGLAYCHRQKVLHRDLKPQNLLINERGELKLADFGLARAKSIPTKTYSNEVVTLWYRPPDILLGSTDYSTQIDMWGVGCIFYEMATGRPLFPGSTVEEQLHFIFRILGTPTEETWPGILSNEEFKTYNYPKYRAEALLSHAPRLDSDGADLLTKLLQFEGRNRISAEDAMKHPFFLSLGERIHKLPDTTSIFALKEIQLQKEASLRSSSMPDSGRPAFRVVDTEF
- assay-procedure: NanoBRET live-cell target engagement, CDK16-NanoLuc/Cyclin Y in HEK-293
- Format: binding
- setup-conditions: CDK16/Y; experiment 1; read-out: Inhibition at 10µM (%)
Express the result in % but write the number alone.

>>> reported("CC(C)c1cnn2c(NCc3ccccc3)cc(NC[C@H]3CCNC[C@@H]3O)nc12")
70.8

[ask] Give the reported value of inhibition at 10 µM for this record: Cn1cc(-c2ccc(-c3cncc(Cl)c3N3CCC4(CCNC4=O)CC3)cc2)cn1
[reply] 1.8

[ask] Read off the recorded inhibition at 10 µM for CC(C)N1CCN(c2ccc(Nc3ncc4cc5n(c4n3)C3(CCCCC3)CNC5=O)nc2)CC1
[reply] 77.1

[ask] Query inhibition at 10 µM for CC(C)(C)c1nc(-c2cccc(NS(=O)(=O)c3c(F)cccc3F)c2F)c(-c2ccnc(N)n2)s1
[reply] 1.4

[ask] Provide only the value of recorded inhibition at 10 µM for N#CCNC(=O)c1ccc(-c2ccnc(Nc3ccc(N4CCOCC4)cc3)n2)cc1
[reply] 31.8

[ask] Look up and report measured inhibition at 10 µM for this entry: CN1CCN(Cc2ccc(NC(=O)Nc3ccc(Oc4ccnc(N)n4)cc3)cc2C(F)(F)F)CC1
[reply] 74.3

[ask] Return the recorded inhibition at 10 µM value; entry: NS(=O)(=O)c1ccc(Nc2nc(OCC3CCCCC3)c3nc[nH]c3n2)cc1
[reply] 66.5

[ask] Return inhibition at 10 µM (reported value) for this compound: COc1ccc(F)cc1-c1cc(NC(=O)C2CCCNC2)ncc1Cl (stereo not shown)
[reply] 89.7

[ask] Give the value of inhibition at 10 µM reported for the following: CN1CCN(c2ccc(Nc3ncc4cc(C#N)c(=O)n(C5CCCC5)c4n3)cc2)CC1
[reply] 70.3

[ask] // Input: CNC(=O)c1nn(C)c2c1C(C)(C)Cc1cnc(Nc3ccc(N4CCN(C)CC4)cc3)nc1-2 . Output its inhibition at 10 µM only.
[reply] 86.4

----------
- tested-system: CDK14/Cyclin Y (Homo sapiens)
- Sequence (O94921 whole entry): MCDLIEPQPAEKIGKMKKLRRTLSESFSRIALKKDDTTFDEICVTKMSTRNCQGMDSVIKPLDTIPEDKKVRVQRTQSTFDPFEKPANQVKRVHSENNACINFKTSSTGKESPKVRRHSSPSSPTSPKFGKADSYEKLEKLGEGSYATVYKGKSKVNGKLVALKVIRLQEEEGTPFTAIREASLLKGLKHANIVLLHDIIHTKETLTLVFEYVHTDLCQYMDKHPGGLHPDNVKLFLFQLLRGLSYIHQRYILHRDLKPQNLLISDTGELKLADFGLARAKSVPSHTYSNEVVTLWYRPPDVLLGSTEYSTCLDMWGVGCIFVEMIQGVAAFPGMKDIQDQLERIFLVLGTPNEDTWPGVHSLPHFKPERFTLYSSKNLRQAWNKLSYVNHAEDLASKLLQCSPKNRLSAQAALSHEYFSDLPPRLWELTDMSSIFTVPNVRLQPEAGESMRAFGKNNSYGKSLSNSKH
- Sequence (Q8ND76 whole entry partner): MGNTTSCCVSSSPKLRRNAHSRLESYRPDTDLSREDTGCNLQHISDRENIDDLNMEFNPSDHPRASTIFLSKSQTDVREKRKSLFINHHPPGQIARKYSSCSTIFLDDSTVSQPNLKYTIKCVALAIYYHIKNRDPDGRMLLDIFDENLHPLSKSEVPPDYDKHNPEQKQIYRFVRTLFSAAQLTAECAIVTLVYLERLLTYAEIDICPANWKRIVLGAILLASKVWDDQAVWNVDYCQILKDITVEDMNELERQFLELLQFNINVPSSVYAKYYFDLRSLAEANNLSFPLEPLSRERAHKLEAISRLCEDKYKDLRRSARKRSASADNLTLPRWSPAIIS
- assay-procedure: NanoBRET live-cell target engagement, CDK14-NanoLuc/Cyclin Y in HEK-293
- Format: binding
- setup-conditions: CDK14/Y; average
parameter-measured: Inhibition at 10µM (%)
API: value field is a number in %; no unit string.

>>> reported("CN1CCC(c2c(O)cc(O)c3c(=O)cc(-c4ccccc4Cl)oc23)C1CO (stereo not drawn)")
50.9

Now look at this one.
[ask] Please report the measured Inhibition at 10µM (%) for CC(C)c1cnn2c(NCc3ccccc3-n3cccn3)nc(OC3CCCNC3)nc12 (stereo not drawn)
[reply] 89.0

----------
- tested-system: CDK1/Cyclin E1 (Homo sapiens, UniProt P06493)
- Sequence (P06493 whole entry): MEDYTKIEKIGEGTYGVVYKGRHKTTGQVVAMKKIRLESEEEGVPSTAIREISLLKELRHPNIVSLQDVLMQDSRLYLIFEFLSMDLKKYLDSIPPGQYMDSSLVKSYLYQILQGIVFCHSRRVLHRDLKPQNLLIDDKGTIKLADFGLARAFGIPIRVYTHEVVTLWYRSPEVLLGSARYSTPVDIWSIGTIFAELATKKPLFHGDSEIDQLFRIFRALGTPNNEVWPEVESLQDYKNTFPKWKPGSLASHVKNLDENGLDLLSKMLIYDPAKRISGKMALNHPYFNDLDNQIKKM
- Sequence (P24864 whole entry partner): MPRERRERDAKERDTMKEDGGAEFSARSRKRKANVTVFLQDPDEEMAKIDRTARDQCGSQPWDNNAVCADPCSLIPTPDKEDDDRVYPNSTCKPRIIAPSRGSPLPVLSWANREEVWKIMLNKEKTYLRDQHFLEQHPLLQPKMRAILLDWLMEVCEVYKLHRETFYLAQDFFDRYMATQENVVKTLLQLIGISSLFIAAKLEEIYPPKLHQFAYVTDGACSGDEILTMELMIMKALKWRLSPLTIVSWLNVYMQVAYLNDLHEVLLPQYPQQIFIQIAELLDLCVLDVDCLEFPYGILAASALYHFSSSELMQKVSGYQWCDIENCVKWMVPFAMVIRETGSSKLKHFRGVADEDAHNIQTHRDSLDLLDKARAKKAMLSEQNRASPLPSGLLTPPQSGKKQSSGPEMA
- assay-procedure: NanoBRET live-cell target engagement, CDK1-NanoLuc/Cyclin E1 in HEK-293
- Type: binding
- setup-conditions: CDK1/E1; average
parameter-measured: Inhibition at 10µM (%)
Reply with just the number (in %).

Example results:
>>> reported("CS(=O)(=O)N1CCC(NC(=O)c2[nH]ncc2NC(=O)c2c(Cl)cccc2Cl)CC1")
92.5
>>> reported("CN1CCC(c2c(O)cc(O)c3c(=O)cc(-c4ccccc4Cl)oc23)C1CO (centres unmarked)")
41.0
>>> reported("CC(C)c1cnn2c(NCc3ccccc3-n3cccn3)nc(OC3CCCNC3)nc12 (centres unmarked)")
72.7

[ask] Kindly indicate its recorded Inhibition at 10µM (%). Item: CCn1cnc2c(Nc3cccc(Cl)c3)nc(N[C@@H]3CCCC[C@@H]3N)nc21 [CGP74514A]
[reply] 78.9

[ask] Item CC(C)c1c2cc(-c3ccnc(N[C@H]4CC[C@H](NC5CCOCC5)CC4)n3)ccc2nn1C : provide Inhibition at 10µM (%)
[reply] 76.5

----------
inhibition at 10 µM values for the compounds below.
- tested-system: CDK18/Cyclin Y (Homo sapiens, UniProt Q07002)
- Sequence (Q07002 whole entry, one chain of several): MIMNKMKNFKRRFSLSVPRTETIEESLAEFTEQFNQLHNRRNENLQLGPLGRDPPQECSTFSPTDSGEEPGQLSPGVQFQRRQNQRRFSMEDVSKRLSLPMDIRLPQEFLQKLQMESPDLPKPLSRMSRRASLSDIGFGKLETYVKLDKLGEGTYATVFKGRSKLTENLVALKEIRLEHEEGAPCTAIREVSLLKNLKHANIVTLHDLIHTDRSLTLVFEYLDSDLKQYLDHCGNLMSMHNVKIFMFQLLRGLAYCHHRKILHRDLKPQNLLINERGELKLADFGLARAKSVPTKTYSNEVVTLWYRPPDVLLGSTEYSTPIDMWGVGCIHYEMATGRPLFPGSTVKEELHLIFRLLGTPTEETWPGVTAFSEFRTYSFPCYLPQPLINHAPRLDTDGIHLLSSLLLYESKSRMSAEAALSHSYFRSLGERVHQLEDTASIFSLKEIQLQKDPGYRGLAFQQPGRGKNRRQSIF
- assay-procedure: NanoBRET live-cell target engagement, CDK18-NanoLuc/Cyclin Y in HEK-293
- Type: binding
- setup-conditions: CDK18/Y; average; read-out: Inhibition at 10µM (%)
I only need the number, in %, no unit after it.

# annotated cases, reported inhibition at 10 µM shown
>>> reported("CN1CCN(c2ccc(Nc3ncc4cc(C#N)c(=O)n(C5CCCC5)c4n3)cc2)CC1")
38.8
>>> reported("CNC(=O)c1nn(C)c2c1C(C)(C)Cc1cnc(Nc3ccc(N4CCN(C)CC4)cc3)nc1-2")
84.2
>>> reported("CC(C)N1CCN(c2ccc(Nc3ncc4cc5n(c4n3)C3(CCCCC3)CNC5=O)nc2)CC1")
19.5
>>> reported("N#CCNC(=O)c1ccc(-c2ccnc(Nc3ccc(N4CCOCC4)cc3)n2)cc1")
18.4
>>> reported("CC(C)(C)c1nc(-c2cccc(NS(=O)(=O)c3c(F)cccc3F)c2F)c(-c2ccnc(N)n2)s1")
8.1
>>> reported("CN1CCN(Cc2ccc(NC(=O)Nc3ccc(Oc4ccnc(N)n4)cc3)cc2C(F)(F)F)CC1")
93.7
>>> reported("CC(C)c1cnn2c(NCc3ccccc3)cc(NC[C@H]3CCNC[C@@H]3O)nc12")
76.2
>>> reported("NS(=O)(=O)c1ccc(Nc2nc(OCC3CCCCC3)c3nc[nH]c3n2)cc1")
30.2

For the next question, use this compound.
[ask] Determine from records and report inhibition at 10 µM for Cn1cc(-c2ccc(-c3cncc(Cl)c3N3CCC4(CCNC4=O)CC3)cc2)cn1
[reply] 10.8

----------
- tested-system: CDK15/Cyclin Y (Homo sapiens)
- Sequence (Q96Q40 whole entry): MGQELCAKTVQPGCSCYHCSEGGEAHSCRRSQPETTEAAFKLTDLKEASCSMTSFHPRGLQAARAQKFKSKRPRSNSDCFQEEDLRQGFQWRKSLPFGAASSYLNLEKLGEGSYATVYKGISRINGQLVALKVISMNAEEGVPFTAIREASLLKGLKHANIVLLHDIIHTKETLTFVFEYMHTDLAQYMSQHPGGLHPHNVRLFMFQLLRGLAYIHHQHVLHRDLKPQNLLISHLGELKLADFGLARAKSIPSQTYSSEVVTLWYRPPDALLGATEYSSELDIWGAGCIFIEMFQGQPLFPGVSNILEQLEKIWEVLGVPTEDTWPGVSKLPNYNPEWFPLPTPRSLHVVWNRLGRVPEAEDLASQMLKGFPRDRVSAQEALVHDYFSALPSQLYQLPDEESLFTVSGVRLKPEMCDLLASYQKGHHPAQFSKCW
- Sequence (Q8ND76 whole entry partner): as the sequence (Q8ND76 whole entry partner) above
- assay-procedure: NanoBRET live-cell target engagement, NanoLuc-CDK15/Cyclin Y in HEK-293
- Assay type: binding
- setup-conditions: CDK15/Y; 10µM; average of replicates
Listed compounds paired with reported Inhibition at 10µM (%) Average
# output: bare number, implied unit %

Examples with their reported Inhibition at 10µM (%) Average follow.
>>> reported("CNC1CCN(C(=O)c2ccc(Nc3ncc(F)c(-c4cnc(C)n4C(C)C)n3)cc2)C1 (stereo not shown) [AZD5597]")
94.7
>>> reported("CC(C)c1cnn2c(NCc3ccccc3)cc(N[C@@H](CO)[C@H](O)CO)nc12 [BS-194]")
82.8
>>> reported("O=C(Nc1c[nH]nc1-c1ccccn1)c1nn(C2CCNCC2)cc1Cl [BDP5290]")
7.2

Shifting focus to the compound that follows.
[ask] Determine reported Inhibition at 10µM (%) Average for CCC(CO)Nc1nc(Nc2cccc(-c3ccccn3)c2)c2ncn(C(C)C)c2n1.Cl.O [(R) - DRF053] ; test system: CDK15/Cyclin Y (Homo sapiens).
[reply] 27.4

----------
- tested-system: CDK20/Cyclin H (Homo sapiens, UniProt Q8IZL9)
- Sequence (Q8IZL9 whole entry): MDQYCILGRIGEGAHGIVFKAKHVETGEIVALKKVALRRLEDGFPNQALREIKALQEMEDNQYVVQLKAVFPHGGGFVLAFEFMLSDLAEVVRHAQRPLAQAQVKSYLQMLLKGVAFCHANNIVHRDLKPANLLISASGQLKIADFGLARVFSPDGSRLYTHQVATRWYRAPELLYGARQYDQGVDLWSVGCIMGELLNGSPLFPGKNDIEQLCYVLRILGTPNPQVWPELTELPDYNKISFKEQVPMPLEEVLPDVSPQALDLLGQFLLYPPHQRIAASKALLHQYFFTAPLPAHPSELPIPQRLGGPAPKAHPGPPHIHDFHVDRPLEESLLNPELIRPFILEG
- Sequence (P51946 whole entry partner): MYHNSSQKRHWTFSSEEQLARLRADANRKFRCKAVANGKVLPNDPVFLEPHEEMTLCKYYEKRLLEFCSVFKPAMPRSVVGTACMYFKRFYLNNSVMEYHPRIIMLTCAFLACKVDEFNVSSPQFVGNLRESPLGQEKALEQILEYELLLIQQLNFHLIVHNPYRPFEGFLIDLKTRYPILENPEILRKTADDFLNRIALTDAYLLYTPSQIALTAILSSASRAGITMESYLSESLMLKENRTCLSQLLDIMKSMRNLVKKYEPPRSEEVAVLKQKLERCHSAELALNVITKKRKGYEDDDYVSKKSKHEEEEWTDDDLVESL
- assay-procedure: NanoBRET live-cell target engagement, NanoLuc-CDK20/Cyclin H in HEK-293
- Assay type: binding
- setup-conditions: CDK20/H; 10µM; read-out: Inhibition at 10µM (%) Replicate 2
Quick rule: inhibition at 10 µM of at least 30% means 1, below that means 0.

Reference set (3 entries):
>>> class_name("CCN1CCN(Cc2ccc(NC(=O)Nc3ccc(Oc4cc(NC)ncn4)cc3)cc2C(F)(F)F)CC1 [AST-487]")
1
>>> class_name("Cc1ncc(-c2ccnc(Nc3ccc(S(C)(=O)=O)cc3)n2)n1C(C)C [AZD5438]")
0
>>> class_name("O=C(NC1CCNCC1)c1[nH]ncc1NC(=O)c1c(Cl)cccc1Cl [AT7519]")
1

[ask] Confirm if inhibition at 10 µM reported for the compound COc1cc(F)ccc1-c1cc(Nc2cc(CS(C)(=N)=O)ccn2)ncc1F (stereo not drawn) [BAY-1251152] is 30% or above.
[reply] 0

[ask] Is the recorded value of inhibition at 10 µM equal to or greater than 30% for this compound? CCN1CCN(Cc2ccc(Nc3ncc(F)c(-c4cc(F)c5nc(C)n(C(C)C)c5c4)n3)nc2)CC1 [Abemaciclib]
[reply] 0

[ask] Quick check: does CCCCOc1c(C(=O)c2c(F)cc(C)cc2F)c[nH]c2nncc1-2 [BMS-265246] have inhibition at 10 µM greater than or equal to 30%?
[reply] 0
